Attribution: ChEMBL document CHEMBL1149608

procedure_text: physchem
experimental_parameters: octanol/water
measured_metric: logD

[[record]]
mol = "CC(C)C[C@H](N)c1cc(C(F)(F)F)ccc1N1CCN(C(=O)[C@@H](Cc2ccc(Cl)cc2Cl)N2CCNCC2=O)CC1"
measured_metric = "logD"
observed_result = 2.8

[[record]]
mol = "CC(C)C[C@H](N)c1cc(C(F)(F)F)ccc1N1CCN(C(=O)[C@@H](Cc2ccc(Cl)cc2)N2CCCC2=O)CC1"
measured_metric = "logD"
observed_result = 3.1


----------
procedure_text: in vivo
experimental_parameters: C57BL/6J, mouse, plasma, iv, 5 mg/kg
measured_metric: clearance (mL/min/kg)

A. CC(C)C[C@H](N)c1cc(C(F)(F)F)ccc1N1CCN(C(=O)[C@@H](Cc2ccc(Cl)cc2)N2CCCC2=O)CC1
B. CC(C)C[C@H](N)c1cc(C(F)(F)F)ccc1N1CCN(C(=O)[C@@H](Cc2ccc(Cl)cc2Cl)N2CCNCC2=O)CC1
Enquiry: Just curious, which one has the larger clearance reading, A or B ? Identify your pick by its label.
Return: A
(A: 31 mL/min/kg, B: 20 mL/min/kg)
